Kindly state apparent KD of MS2 coat protein for each of the entries shown.
# Test system: MS2 coat protein
# Test Method Notes: apparent KD of MS2 coat protein; designed switch direction (-1 OFF switch, 1 ON switch): -1; higher = weaker reporter binding
# Condition: input ligand: microRNA oligo, concentration not stated
Respond with the bare value in nM.

QUERY: Suppose we examine the sequence UGUUGGUACGUAGGAUAUCCACCAACAGGUGGAAGGAUAUGUACGCAGAAGGUUCGCCAACAGGCGGAGAAGGACGUGGUAACU [pwkr exNG2 2xF7 2xFMN.29] (Eterna round: R96, puzzle: Exclusion NG 2) ; what apparent KD of MS2 coat protein value has been reported?
RESULT: 73.8

QUERY: Also UUGAUGUCAUCAGGAUAUAGUAUUUAAGACAUAUCUUCUUUCUUACAUGAGGAUCACCCAUGUCGCUAGAAGGGAUGAAUGAUU [JR_ExcNG2_Sub086] (Eterna round: R96, puzzle: Exclusion NG 2) ?
RESULT: 13.4

QUERY: Item: CAUUAUUAUCGAGGAUAUCCUAUUGUAAUUCUGGGAGAAGGCGGACUCAACAUGAGGAUCACCCAUGUAAGACGGGUACUAGAG [Ex NG1 #23] (Eterna round: R96, puzzle: Exclusion NG 1)
RESULT: 49.3

QUERY: Input CGGCUACGAUGAGGAUAUACGCACAUGAGGAUCACCCAUGUAAAUCACGGGUAAAGAUCGUCAUCGUAGAAGGCAUAAGGGCCC [Ormale] (Eterna round: R96, puzzle: Exclusion NG 2)
RESULT: 23.9

QUERY: Repeat with AGCUAGUGCCGAGGAUAUACAUGAGGAUCACCCAUGUAGCCGUGAGGCUUUGUCUCACGGGAUAUGUAGAAGGCGGCGUUGGCA [JL ENG2 1.53] (Eterna round: R96, puzzle: Exclusion NG 2)
RESULT: 11.8

====

# Tested on: K4 kissing-loop RNA reporter;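 further: bound reporter read as fluorescence of individual clusters on recovered sequencing chips by microscopy, with normalized cluster intensities fitted with a binding model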
# Test Method Notes: apparent KD of K4 kissing-loop reporter; higher = weaker reporter binding
# Condition: Eterna round: R107; input ligand: none
# label = bin(measured apparent KD of K4 kissing-loop reporter), where bins are class A (below 200 nM), class B (200 nM to below 400 nM), class C (400 nM or more)

QUERY: Into which category would you place AGAUUCGACACGGCCGCCACUUCCGGUGGCUGGUGUCAUGGUGCGCGUGAGUGAUGUUUAUGUGGAAGGACCGGGUGUUGAGUCU [whbob_Ex_Tryp_B_w41] ?
RESULT: class C

QUERY: UCUGCUGUAUAUGAUACCAGCAGUGAGAGACCAGAAGUAUAGUGAUGUUAUAUGAGAGAAUGCCCUUGGCAGCGUGUGCGGGUGG [SSTheophylB.Z] , same question.
RESULT: class A

QUERY: Also check UGAUACCAGACGGCCGCCACUCCUGCAGUCAAAGACUGCUAAAAGGAAAUCGUCCAGUGAUGUUGGAGGACCGGGUCUGGUAUCU [TrypBX 14 #SwitchBubble #Palindromic #StaticStem]
RESULT: class C

QUERY: Quick one: UAAGAAUAAGUAGCAGUGAUGUUGCUACUGCGAGGACCGGUACGGCCGCCACUCGAGUCCUCGAAGCGUCACUGAACGAGGAAUA [whbob_SS_Tryp_A_m13]
RESULT: class B

QUERY: Quick one: AUUCUGUUUUUAAUGUUUAUUGUAUAAUGGCAGGAUAUCGUAGAAGCGAGAAGGGCUUUUAUGCGUUAUGAGUGAUGUUUGUAGG [dhhyfvmullin]
RESULT: class B

QUERY: Request: AGGUUUUGAUCAGGAUAUGCAUUGACGAUGAGAAUAUAGUGAUGUUAUAUACUACGAAUUAGUAAAGUAGAAGGGAUUGAGGUUU [SSFMNB.aB]
RESULT: class C

QUERY: Now consider AGAGAUAUAUGAGGAUAUGAGAUAGUUAAUGAGUGAGUUAUAGUGUUGUUUGGUUAGUGAUGUUAUUUAGAAGGCGUGAGUGAUG [immumullin] and answer again.
RESULT: class A

QUERY: What about UUACUACCCAGUGAUGUUGGGUAGCGGCCACGAGGACCGGUACGGCCGCCACUCGAGGUUCGGGAGUGAUGUUCCUACUAUUUGG [Same state Tryptophan A GF 6] ?
RESULT: class B

QUERY: Same question, UUAGCGACAAGUCAGAUUCUGACAAUUGAUACCAGAUAGAAUUCUAUCCCUUGGCAGCAGUGAUGUUGUUGCAAUAAGUCGCAUU [AK2 Exc Theophylline A] this time
RESULT: class B

QUERY: Also CCUAUCUCAUACGAUACCAGUGAAUUUAUAUUUAUUAGCAGUGAUGUUGCAUUCCAAGUACACCCUUGGCAGCGUAUGGGAUAGG [Ex Theophylline B K4 22] ?
RESULT: class A

QUERY: Another sequence to check: UACCUAUUAUUAACACUAUAUACAACUGAAGGAGCGACAAUAAAGUCAGGUAGGUCGCAGAAUUAAUGAGUGAUGUUCAUUUUUA [JR_ExcArginiA_Sub014]
RESULT: class A

QUERY: Again, but for UUAGGAGUGGAAGGAUAUCCUGGUGUGGGUGAUGUUAGUGAUGUUGGAGGUGCAGUGAUGUUGCGCGGAGAAGGUCCGGUGUUGA [BDazzled - #5 - Exc. FMN B]
RESULT: class B

Reference for the values: the supplement of paper PMC9170038
